Tested on: IGROV1 ovarian
protocol-summary: NCI tumour cell line growth inhibition, 48 h
Where a SMILES comes first, the peptide text is derived from it. [ ]: non-standard residue; d: D form. β3hI = CC[CH](C)[CH](N)CC(=O)O
measurement-name: TGI

Example entries and their recorded answers appear below.
molecule="COc1cccc(N2C(=O)CSC2c2cc(OC)c(OC)c(OC)c2)c1 (stereo unspecified)" result="> 100 µM"
molecule=COc1ccc(O)c(C=NCCCN=Cc2cc(OC)ccc2O)c1 result="> 100 µM"
molecule=O=C(Nc1c(O)[nH]c(=S)[nH]c1=O)c1ccc2ccccc2n1 result="> 100 µM"
molecule=COC(=O)CCC/C=C\C[C@H]1C=CC(=O)/C1=C/C[C@@H](O)C/C=C\CC(F)(F)F result="7.6 µM"
molecule="CCC(C)C(CC(=O)N1CCCC1C(=O)NC(C(=O)NC(C(=O)NCC(=O)NC(CC(N)=O)C(=O)NC(C(=O)NC(C(=O)NC(CCCCN)C(N)=O)C(C)CC)C(C)CC)C(C)C)C(C)CC)NC(=O)C(N)C(C)CC (stereo not drawn) (H-I[β3hI]PIVGNIIK-NH2; configuration not given here)" result="> 50 µM"
molecule=O=C(O)CC/C(=N\Nc1nsc2ccccc12)c1ccc(Cl)cc1 result="> 100 µM"

Request - read-out TGI | tested on IGROV1 ovarian | molecule CNC(=O)CCCN(C)C(=O)CCCCC(=O)N(C)C
> 100 µM

Can you handle Cc1cc(O)cc2c1O[C@@]1(C)CCC3[C@@]4(C)CC[C@H](O)C(C)(C)C4CC[C@@]3(C)[C@H]1C2 (stereo partly specified) next?
30.2 µM

Then this molecule: NS(=O)(=O)c1ccc(CNc2nc(-c3cccs3)nc3ccc(I)cc23)cc1
30.6 µM

Continue with CCOC(=O)/C(=C/c1ccc(C#N)cc1)N(CC)CC
> 100 µM

Then CCOC(=O)c1c(-c2ccc(OC)cc2)c(C#N)c(=S)n(C2OC(CO)C(O)C(O)C2O)c1-c1ccccc1 (stereo unspecified) ?
> 100 µM

Moving on to the next molecule: CCOP(=O)(OCC)/C(C#N)=C/c1cccn1CC(C)C
> 100 µM

Next entry: COc1ccc2c(c1)N=C1CSC(c3cc([N+](=O)[O-])ccc3Cl)N1C2 (stereo unspecified)
> 100 µM

---

Test system: RXF 393 renal
protocol-summary: NCI tumour cell line growth inhibition, 48 h
Entries and their TGI values follow.

Solved entries:
compound=CCOC(=O)[C@@]12CCC(C1=O)[C@](C)(O)C[C@@H]2c1ccccc1 target_entity="RXF 393 renal" result="> 100 µM"
compound=Cc1ccc(-c2csc(=Nc3c(C)n(C)n(-c4ccccc4)c3=O)n2CCO)cc1 target_entity="RXF 393 renal" result="> 100 µM"
compound="Cc1ccc(S(=O)(=O)OC2C(C3COC(C)(C)O3)OC3OC(C)(C)OC32)cc1 (stereo not drawn)" target_entity="RXF 393 renal" result="> 100 µM"

Recorded TGI for CC12CCC[C@@](C)(C(=O)OC3OC(CO)C(O)C(O)C3O)[C@H]1CCC13CC4CC(OC4(CO)[C@H]1O)[C@@H]23 (stereo partly drawn) , please?
> 100 µM

Proceed to CC(C)=CC(=O)Cc1nc2cc(C)c(C)cc2[nH]c1=O
> 100 µM

Would you mind doing COC(=O)C1(Cc2ccccc2)Cc2ccc3c(c2C1=O)CCC3 (stereo not drawn) as well?
> 69.5 µM

Try the compound CC1CCC2C(C(=O)O[C@H]3C4CCO[C@@H](OC5OC(CO)C(O)C(O)C5O)C4[C@@]4(CO)O[C@@H]34)=CO[C@@H](OC3OC(CO)C(O)C(O)C3O)C12 (stereo partly drawn)
> 10 µM

Let us now turn to O=C(COc1ccccc1)NS(=O)(=O)c1ccccc1
> 100 µM

Now this one: COc1ccc2c(c1)OC[C@@H]1c3cc4c(cc3O[C@H]21)OCO4
> 100 µM

Here is the next compound: COc1ccc(-c2nc(-c3nc4ccc(OC)cc4[nH]3)cc3c2[nH]c2ccccc23)cc1
> 100 µM

Do the same for CC(C)(C)C(=O)C(C(c1ccccc1)N1CCOCC1)N1CCOCC1 (stereo not drawn) please
> 100 µM

Okay, and CCO[C@]12C[C@H](OC)[C@@]3(O)CC(C1[C@H]3O)C13C4C2[C@H](OC)C1[C@](COC)(CN4CC)[C@H](O)C[C@@H]3OC (stereo partly drawn) ?
> 100 µM

Entry to check: CN(C)CCCc1c[nH]c2ccccc12
> 100 µM
